Hello, the source for this data is ChEMBL document CHEMBL1649165, in case you need it.

- System: Lewia infectoria
- test protocol: Antimicrobial activity against Alternaria infectoria by broth microdilution method
- Format: functional
*1 amine or outer side, *2 acyl side, *3 side chain or, on linkers, in order; H or OH if unused. Where a SMILES comes first, the peptide text is derived from it. Bridges are numbered along the chain shown (N, C = ends). [ ]: non-standard residue; d: D form. The star is where a group is joined. hTyr(3S-OH,4S-OH,3'-OSO3H) = N[C@H](C(=O)O)[C@H](O)[C@@H](O)c1ccc(O)c(OS(=O)(=O)O)c1; Orn(4R-OH,5R-OH) = O=C([C@H](C[C@@H](O)[C@@H](O)N[*:3])N[*:1])[*:2]; Pro(3S-OH,4S-Me) = C[C@H]1CN[C@H](C(=O)O)[C@H]1O; X1 = CCCCCOc1ccc(-c2cc(-c3ccc(C(=O)*)cc3)no2)cc1; Gln(3R-OH) = NC(=O)C[C@@H](O)[C@H](N)C(=O)O; Hyp = O=C(O)[C@@H]1C[C@@H](O)CN1

| compound | MIC90 |
| --- | --- |
| C[C@@H](c1ncncc1F)[C@](O)(Cn1cncn1)c1ccc(F)cc1F [VORICONAZOLE] | > 8 µg/mL |
| CC[C@H](C)C[C@H](C)CCCCCCCCC(=O)N[C@H]1C[C@@H](O)[C@@H](NCCN)NC(=O)[C@@H]2[C@@H](O)CCN2C(=O)[C@H]([C@H](O)CCN)NC(=O)[C@H]([C@H](O)[C@@H](O)c2ccc(O)cc2)NC(=O)[C@@H]2C[C@@H](O)CN2C(=O)[C@H]([C@@H](C)O)NC1=O [CASPOFUNGIN] | > 16 µg/mL |
| CCCCCOc1ccc(-c2cc(-c3ccc(C(=O)N[C@H]4C[C@@H](O)[C@@H](O)NC(=O)[C@@H]5[C@@H](O)[C@@H](C)CN5C(=O)[C@H]([C@H](O)CC(N)=O)NC(=O)[C@H]([C@H](O)[C@@H](O)c5ccc(O)c(OS(=O)(=O)O)c5)NC(=O)[C@@H]5C[C@@H](O)CN5C(=O)[C@H]([C@@H](C)O)NC4=O)cc3)no2)cc1 [MICAFUNGIN] (X1-[Orn(4R-OH,5R-OH)]T[Hyp][hTyr(3S-OH,4S-OH,3'-OSO3H)][Gln(3R-OH)][Pro(3S-OH,4S-Me)]; lactam 1-C) | > 16 µg/mL |
| CC[C@@H]([C@H](C)O)n1ncn(-c2ccc(N3CCN(c4ccc(OC[C@@H]5CO[C@@](Cn6cncn6)(c6ccc(F)cc6F)C5)cc4)CC3)cc2)c1=O [POSACONAZOLE] | > 8 µg/mL |

* * *

Recorded measurements of MIC90, one per entry
- Tested on: Beauveria bassiana
- test protocol: Antimicrobial activity against Beauveria bassiana by broth microdilution method
- Type: functional
*1 amine or outer side, *2 acyl side, *3 side chain or, on linkers, in order; H or OH if unused. Where a SMILES comes first, the peptide text is derived from it. Bridges are numbered along the chain shown (N, C = ends). [ ]: non-standard residue; d: D form. The star is where a group is joined. hTyr(3S-OH,4S-OH,3'-OSO3H) = N[C@H](C(=O)O)[C@H](O)[C@@H](O)c1ccc(O)c(OS(=O)(=O)O)c1; Orn(4R-OH,5R-OH) = O=C([C@H](C[C@@H](O)[C@@H](O)N[*:3])N[*:1])[*:2]; Pro(3S-OH,4S-Me) = C[C@H]1CN[C@H](C(=O)O)[C@H]1O; X1 = CCCCCOc1ccc(-c2cc(-c3ccc(C(=O)*)cc3)no2)cc1; Gln(3R-OH) = NC(=O)C[C@@H](O)[C@H](N)C(=O)O; Hyp = O=C(O)[C@@H]1C[C@@H](O)CN1
readout type: MIC90

| molecule | value observed |
| --- | --- |
| CCCCCOc1ccc(-c2cc(-c3ccc(C(=O)N[C@H]4C[C@@H](O)[C@@H](O)NC(=O)[C@@H]5[C@@H](O)[C@@H](C)CN5C(=O)[C@H]([C@H](O)CC(N)=O)NC(=O)[C@H]([C@H](O)[C@@H](O)c5ccc(O)c(OS(=O)(=O)O)c5)NC(=O)[C@@H]5C[C@@H](O)CN5C(=O)[C@H]([C@@H](C)O)NC4=O)cc3)no2)cc1 [MICAFUNGIN] (X1-[Orn(4R-OH,5R-OH)]T[Hyp][hTyr(3S-OH,4S-OH,3'-OSO3H)][Gln(3R-OH)][Pro(3S-OH,4S-Me)]; lactam 1-C) | > 16 µg/mL |
| C[C@@H]1[C@H](O)[C@@H](C)/C=C/C=C/C=C/C=C/C=C/C=C/C=C/[C@H](O[C@@H]2O[C@H](C)[C@@H](O)[C@H](N)[C@@H]2O)C[C@@H]2O[C@](O)(C[C@@H](O)C[C@@H](O)[C@H](O)CC[C@@H](O)C[C@@H](O)CC(=O)O[C@H]1C)C[C@H](O)[C@H]2C(=O)O | > 16 µg/mL |
| CC[C@@H]([C@H](C)O)n1ncn(-c2ccc(N3CCN(c4ccc(OC[C@@H]5CO[C@@](Cn6cncn6)(c6ccc(F)cc6F)C5)cc4)CC3)cc2)c1=O | > 8 µg/mL |

* * *

- test protocol: Antimicrobial activity against Rhizopus microsporus by broth microdilution method
- Assay type: functional

| smiles notation | MIC90 |
| --- | --- |
| CC[C@@H]([C@H](C)O)n1ncn(-c2ccc(N3CCN(c4ccc(OC[C@@H]5CO[C@@](Cn6cncn6)(c6ccc(F)cc6F)C5)cc4)CC3)cc2)c1=O | > 8 µg/mL |

* * *

- Test system: Aspergillus sclerotiorum
- test protocol: Antimicrobial activity against Aspergillus sclerotiorum by broth microdilution method
- Format: functional
*1 amine or outer side, *2 acyl side, *3 side chain or, on linkers, in order; H or OH if unused. Where a SMILES comes first, the peptide text is derived from it. Bridges are numbered along the chain shown (N, C = ends). [ ]: non-standard residue; d: D form. The star is where a group is joined. hTyr(3S-OH,4S-OH,3'-OSO3H) = N[C@H](C(=O)O)[C@H](O)[C@@H](O)c1ccc(O)c(OS(=O)(=O)O)c1; pTerphenylCO(4''-OnC5H11) = CCCCCOc1ccc(-c2ccc(-c3ccc(C(=O)*)cc3)cc2)cc1; Orn(4R-OH,5R-OH) = O=C([C@H](C[C@@H](O)[C@@H](O)N[*:3])N[*:1])[*:2]; hTyr(3S-OH,4S-OH) = N[C@H](C(=O)O)[C@H](O)[C@@H](O)c1ccc(O)cc1; Pro(3S-OH,4S-Me) = C[C@H]1CN[C@H](C(=O)O)[C@H]1O; X1 = CCCCCOc1ccc(-c2cc(-c3ccc(C(=O)*)cc3)no2)cc1; Gln(3R-OH) = NC(=O)C[C@@H](O)[C@H](N)C(=O)O; Hyp = O=C(O)[C@@H]1C[C@@H](O)CN1

| molecule | qualifier | MIC90 / µg/mL |
| --- | --- | --- |
| CC[C@@H]([C@H](C)O)n1ncn(-c2ccc(N3CCN(c4ccc(OC[C@@H]5CO[C@@](Cn6cncn6)(c6ccc(F)cc6F)C5)cc4)CC3)cc2)c1=O | > | 8 |
| CCCCCOc1ccc(-c2cc(-c3ccc(C(=O)N[C@H]4C[C@@H](O)[C@@H](O)NC(=O)[C@@H]5[C@@H](O)[C@@H](C)CN5C(=O)[C@H]([C@H](O)CC(N)=O)NC(=O)[C@H]([C@H](O)[C@@H](O)c5ccc(O)c(OS(=O)(=O)O)c5)NC(=O)[C@@H]5C[C@@H](O)CN5C(=O)[C@H]([C@@H](C)O)NC4=O)cc3)no2)cc1 [MICAFUNGIN] (X1-[Orn(4R-OH,5R-OH)]T[Hyp][hTyr(3S-OH,4S-OH,3'-OSO3H)][Gln(3R-OH)][Pro(3S-OH,4S-Me)]; lactam 1-C) | = | 0.25 |
| CCCCCOc1ccc(-c2ccc(-c3ccc(C(=O)N[C@H]4C[C@@H](O)[C@@H](O)NC(=O)[C@@H]5[C@@H](O)[C@@H](C)CN5C(=O)[C@H]([C@@H](C)O)NC(=O)[C@H]([C@H](O)[C@@H](O)c5ccc(O)cc5)NC(=O)[C@@H]5C[C@@H](O)CN5C(=O)[C@H]([C@@H](C)O)NC4=O)cc3)cc2)cc1 [ANIDULAFUNGIN] ({pTerphenylCO(4''-OnC5H11)}-[Orn(4R-OH,5R-OH)]T[Hyp][hTyr(3S-OH,4S-OH)]T[Pro(3S-OH,4S-Me)]; lactam 1-C) | = | 0.25 |
| CCC(C)n1ncn(-c2ccc(N3CCN(c4ccc(OCC5COC(Cn6cncn6)(c6ccc(Cl)cc6Cl)O5)cc4)CC3)cc2)c1=O (centres undefined) | > | 8 |
